Test system: NCI-H522 lung
assay_details: NCI-60 one-dose screen, 48 h (100 = growth as untreated, 0 = no growth, -100 = all killed)
test_settings: 10 µM unless noted
This is part of a sample that, as a whole, favours compounds with a hit. Of some 83,000 tested, about 20% had one in any assay.
The label is class 1 for growth below 90% and class 0 for growth equal to or exceeding 90%.

compound | assigned_category
COC(=O)c1cc(-c2ccc(S(C)(=O)=O)cc2)[nH]c1N/N=C/c1c(Cl)cccc1Cl | class 1
COc1cc2c(c(OC)c1OC)CCC(c1cccc(C(=O)Nc3cccc(Br)c3)c1)O2 (centres undefined) | class 1
COc1ccc(-c2nc3c(c(-c4ccccc4)nn3-c3ccccc3)c(-c3ccc(N4CCN(C)CC4)cc3)c2C#N)cc1 | class 0
CS(=O)(=O)c1cccc(-c2c(-c3cccc(OS(N)(=O)=O)c3)nc3sccn23)c1 | class 0
COC(=O)c1cc(-c2ccc(OC)cc2)[nH]c1N/N=C/c1c(Cl)cccc1Cl | class 1
O=S(=O)(NCCCNc1nccc(-c2c(-c3ccc(F)c(O)c3)nc3occn23)n1)c1ccccc1 | class 1
O=C(COc1ccc(-c2nc3ccccc3[nH]2)cc1)N=Nc1c(O)[nH]c2ccc(Cl)cc12 | class 0
COCCNC(=O)c1ccc(-c2nc3ccc4[nH]ncc4c3c3c2CCCC3)cc1 | class 1

----------
Tested on: BT-549 breast
assay_details: NCI-60 one-dose screen, 48 h
test_settings: 10 µM unless noted
About 83,000 compounds went through this panel and 20% of them were active in at least one assay; those are over-represented in the sample as a whole. Calls of active or inactive are those of the source. Rule for the calls: active = growth percent below 10; inactive = the rest.
Labels: active, inactive

compound | system_under_test | assigned_category
CN(C)CCCC1(c2ccc(F)cc2)OCc2cc(-c3cncc4ccccc34)ccc21 (stereo unspecified) | BT-549 breast | inactive
CC(C)(C)n1cc(-c2ccnc(NCCNS(=O)(=O)c3cccc4ccccc34)c2)c(-c2cccc(F)c2)n1 | BT-549 breast | active
O=[N+]([O-])/C(=C/C=C/c1ccccc1)c1ccccc1 | BT-549 breast | inactive
CCCCC(=O)c1ccco1 | BT-549 breast | inactive
O=C(NCc1ccccc1)Nc1ccccc1CNc1nc(Nc2ccc(OCCN3CCCC3)cc2)ncc1Cl | BT-549 breast | inactive
C/C(=N\NC(=O)c1ccccc1O)c1cccc(/C(C)=N/NC(=O)c2ccccc2O)n1 | BT-549 breast | active
Cc1ccc(NC(=S)NNC(=S)NNc2ccccc2)cc1C | BT-549 breast | inactive
Cc1cc(Cl)ccc1NC(=O)c1cc2ccccc2cc1O | BT-549 breast | inactive
CS(=O)(=O)Nc1cc(-c2ccc3ncnc(Nc4c(Cl)ccc5c4OCO5)c3c2)cnc1Cl | BT-549 breast | active
CC1=Nc2cnc(Nc3ccc(OCCN4CCCC4)cc3)nc2Nc2ccccc21 | BT-549 breast | inactive
O=Cc1ccc([N+](=O)[O-])s1 | BT-549 breast | inactive

----------
Recorded growth for the following compounds
Test system: BT-549 breast
assay_details: NCI-60 one-dose screen, 48 h (100 = growth as untreated, 0 = no growth, -100 = all killed)
test_settings: 10 µM unless noted
Compounds without any hit were thinned out: in the full panel of roughly 83,000, 20% have a hit.

compound | system_under_test | unit_name | growth
O=C(COc1ccc(-c2nc3ccccc3[nH]2)cc1)N=Nc1c(O)[nH]c2ccc(Cl)cc12 | BT-549 breast | % | 110
CN1C(=O)N(C)C2Nn3c(s/c(=C\c4ccc(C(F)(F)F)cc4)c3=O)=NC21 (stereo not given) | BT-549 breast | % | 113
COc1cc(CNS(=O)(=O)c2ccc(C)cc2)ccc1OCc1cn(-c2ccc(F)cc2)nn1 | BT-549 breast | % | 83.6
CC/C(=C(/c1ccc(Cl)cc1)c1ccc(OCCN2CCCC2)cc1)c1ccc(OC)cc1 | BT-549 breast | % | 85.8
O=C1/C(=C/c2ccccc2Br)COc2ccc(O)c(O)c21 | BT-549 breast | % | 14.7
N=C(N)c1ccc(-c2ccc(-c3ccc(Cl)cc3)s2)nc1 | BT-549 breast | % | 98
N#Cc1cnc(NCCc2ccncc2)nc1-n1cnc2ccccc21 | BT-549 breast | % | 48.5
CS(=O)(=O)Nc1cc(-c2ccc3ncnc(Nc4ccc5c(cnn5Cc5ccccn5)c4)c3c2)cnc1Cl | BT-549 breast | % | 56.7
CN1C(=O)/C(=C/c2ccc(C(=O)Nc3ncc(Cc4ccc(Cl)cc4)s3)cc2)SC1=S | BT-549 breast | % | 46.7
CCc1nc2c(=O)[nH]cnc2o1 | BT-549 breast | % | 102

Reference source for all entries: PubChem BioAssay (NCI)
